All figures here come from patent US20240026024A1.

assayed target: T1, monkey CD73 (Novoprotein, Cat No. C121) (monkey, UniProt A0A2K5V5U7 27-549)
T1 construct: Bought protein; also called monkey CD73 protein
T1 sequence: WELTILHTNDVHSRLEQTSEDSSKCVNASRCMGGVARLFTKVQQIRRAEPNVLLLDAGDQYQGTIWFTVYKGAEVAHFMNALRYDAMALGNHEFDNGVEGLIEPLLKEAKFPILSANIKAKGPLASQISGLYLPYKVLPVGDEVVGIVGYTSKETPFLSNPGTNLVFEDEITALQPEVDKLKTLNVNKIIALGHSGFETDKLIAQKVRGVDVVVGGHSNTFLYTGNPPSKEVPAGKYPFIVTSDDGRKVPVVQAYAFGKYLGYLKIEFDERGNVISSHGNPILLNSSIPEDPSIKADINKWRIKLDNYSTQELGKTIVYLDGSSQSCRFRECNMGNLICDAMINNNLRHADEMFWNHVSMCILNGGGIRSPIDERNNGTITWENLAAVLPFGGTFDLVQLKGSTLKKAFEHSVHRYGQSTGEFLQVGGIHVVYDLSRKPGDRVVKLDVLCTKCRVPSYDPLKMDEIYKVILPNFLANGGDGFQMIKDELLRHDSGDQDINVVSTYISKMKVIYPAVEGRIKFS
procedure summary: SPR (Biacore T200), antibody captured on protein A chip, CD73 as analyte, 1:1 model
measured metric: koff (s⁻¹)
Provide only the numeric value, understood in s⁻¹.

Assign koff to the following record: 900698 (antibody, V domains shown, Constant regions are not restated) VH: QVQLVESGGGLVKPGGSLRLSCAASGFTFSKYAMSWIRQAPGKGLEWVAEISSGGGYINYADSVKGRFTISRDNAKNSLYLQMNSLRAEDTAVYYCARAIYYYGSSYNYYAMDYWGQGTTVTVSS VL: DIQMTQSPSSLSASVGDRVTITCRASQDVGTAEAWYQQKPGKAPKLLIYWASTRHTGVPSRFSGSGSGTDFTLTISSLQPEDFATYYCQQYSSYPLTFGQGTKLEIK 0.000115
